Ref: the supplement of paper PMC4862054

- System: MFM-223
- measurement notes: normalised viability (% of control), CellTiter-Blue; higher = more viable cells (about 100 = DMSO control)
- cond: 10000 nM; incubation time: 72 h
Just a reminder that ties go to N: only normalised viability strictly below 80% counts as Y.

Here's what some known entries look like.
C[C@]1(O)C[C@@H](c2nc(-c3ccc4ccc(-c5ccccc5)nc4c3)c3c(N)nccn32)C1 = Y
Oc1ncnc2[nH]ncc12 = N

Query: Dear colleague, could you confirm whether normalised viability of "COc1cc2c(cc1O)CC[C@@H]1[C@@H]2CC[C@]2(C)[C@@H](O)CC[C@@H]12" falls below 80%? Thanks.
Result: N

Query: Does the reported normalised viability of the following molecule sit strictly below 80%? Cn1cc(C2=Nc3cc(NC(=O)C(N)C4CCCCC4)cc4c3C2=CNNC4=O)cn1 (stereo unspecified)
Result: Y

Query: hey, is normalised viability for "CC(=O)c1c(C)c2cnc(Nc3ccc(N4CCNCC4)cn3)nc2n(C2CCCC2)c1=O" lower than 80% or not?
Result: Y

====

EC50, CellTiter-Glo listing for selected compounds.
- System: CAL-120
- cond: 72 h
Answer with a number only, understood to be in nM.

Cn1cnc2c(F)c(Nc3ccc(Br)cc3Cl)c(C(=O)NOCCO)cc21 = 9280
Cc1ccc([N+](=O)[O-])cc1S(=O)(=O)N(C)/N=C/c1cnc2ccc(Br)cn12 = 29.2
Cc1sc2c(c1C)C(c1ccc(Cl)cc1)=N[C@@H](CC(=O)OC(C)(C)C)c1nnc(C)n1-2 [(+)JQ1] = 231

Lab note: compound "CC(=O)c1c(C)c2cnc(Nc3ccc(N4CCNCC4)cn3)nc2n(C2CCCC2)c1=O" tested on CAL-120; recorded EC50, CellTiter-Glo was 409

====

- Test system: HCC1599
- measurement notes: drug sensitivity score (DSS), CellTiter-Blue viability (DSS (AUC-based score)); higher = stronger viability inhibition; extreme values may be limits of the assay
- cond: incubation time: 72 h
Catalogue of molecules with associated drug sensitivity score
No unit in the answer, please; the number alone is enough.

CC1(C)CNc2cc(NC(=O)c3cccnc3NCc3ccncc3)ccc21 [Motesanib] = 0
Nc1ncn([C@@H]2O[C@H](CO)[C@@H](O)[C@H]2O)c(=O)n1 [Azacitidine] = 0

Lab note: Cn1cnc2c(F)c(Nc3ccc(Br)cc3Cl)c(C(=O)NOCCO)cc21 [Selumetinib] gave drug sensitivity score of 3.63

// recorded drug sensitivity score for CC(C)(C)c1cnc(CSc2cnc(NC(=O)C3CCNCC3)s2)o1 [SNS-032] : 18

The recorded drug sensitivity score for C[C@]12CC[C@@H]3c4ccc(OC(=O)N(CCCl)CCCl)cc4CC[C@H]3[C@@H]1CC[C@@H]2O [Estramustine] is 0

Oc1ncnc2[nH]ncc12 [Allopurinol] yielded drug sensitivity score of 0

====

- Test system: MDA-MB-436
- measurement notes: normalised viability (% of control), CellTiter-Blue; higher = more viable cells (about 100 = DMSO control)
- cond: 10 nM; incubation time: 72 h
The label Fulfilled is reserved for normalised viability strictly under 80%; Not fulfilled covers values equal to or above it.

Here's what some known entries look like.
Cc1sc2c(c1C)C(c1ccc(Cl)cc1)=N[C@@H](CC(=O)OC(C)(C)C)c1nnc(C)n1-2 [(+)JQ1] = Not fulfilled
Nc1nc2[nH]cnc2c(=S)[nH]1 = Not fulfilled

Query: Is 80% strictly greater than the compound's reported normalised viability? compound: "Nc1ncn([C@@H]2O[C@H](CO)[C@@H](O)[C@H]2O)c(=O)n1"
Result: Not fulfilled

Query: Quick check: does "CC1(C)CNc2cc(NC(=O)c3cccnc3NCc3ccncc3)ccc21" have normalised viability under 80%?
Result: Fulfilled

Query: Lab note: normalised viability threshold 80%. Does this compound come in strictly under it? "COc1cc(F)c(F)c(Nc2ccc(I)cc2F)c1NS(=O)(=O)C1(C[C@H](O)CO)CC1"
Result: Not fulfilled
